src = PubChem BioAssay (NCI)

test system: SF-295 CNS; test: NCI tumour cell line growth inhibition, 48 h

Compound | GI50
Fc1cccc(COc2ccc(Nc3ncncc3C#Cc3ccccc3)cc2Cl)c1 | > 25 µM
COc1cc(/C=C\[N+](=O)[O-])ccc1O | 17.2 µM
COc1c(C2CC(=O)Nc3c2cnn3Cc2ccco2)cc2c(c1OC)OCO2 (configuration not stated) | 0.573 µM
O=C1/C(=C/c2ccc(F)cc2)CCOc2ccc([N+](=O)[O-])cc21 | 3.08 µM
COc1ccc2cc1Oc1ccc(cc1)C[C@H]1c3cc(c(OC)cc3CCN1C)Oc1c(OC)c(OC)cc3c1[C@H](C2)N(C)CC3 | 12.8 µM
COC1(C(=O)N2Cc3nc(Cl)nc(N[C@H](C)c4cc(N)cc(C(F)(F)F)c4)c3C2)CCOCC1 | 12.5 µM
O=[Se]([O-])c1ccccc1.O=[Se]([O-])c1ccccc1.[OH3+].[OH3+].[Pt+2] | 3.42 µM

* * *

system: A498 renal; experiment: NCI tumour cell line growth inhibition, 48 h
Value Kind: TGI

Molecule | Value Kind | Result
Cc1ccc(-c2c(N)nc(NC#N)nc2CCC(=O)Nc2ccccc2[N+](=O)[O-])cc1 | TGI | > 100 µM
CC(C)CC(N)C(=O)OCN1C(=O)C2C3C=CC(C2C1=O)C1C2C(=O)N(COC(=O)C(N)CC(C)C)C(=O)C2C31 (stereo not given) | TGI | > 100 µM
Cc1cc2nc3c4cc(Cl)ccc4n(CCN(C)C)c3nc2cc1C | TGI | 2.63 µM
C#Cc1cnc(=O)n(C2CC(O)C(CO)O2)c1 (stereo not given) | TGI | > 100 µM
CC(C)(C)OC(=O)n1cc(CNC(=S)Nc2ccccc2)c2ccccc21 | TGI | 31.2 µM
CCOP(=O)(OCC)[C@H](O)c1ccsc1 | TGI | > 100 µM
CSc1nc(SC)c2c(CN=[N+]=[N-])c(Br)n(Cc3ccccc3)c2n1 | TGI | > 100 µM
Cc1ccccc1C1OC1C(=O)c1ccccc1N (stereo not given) | TGI | > 100 µM
CSC1=NC=CCN1C | TGI | > 100 µM
Cc1c(/C=N\NC(=S)N2CCN(C(=S)N/N=C\c3c(C)n(C)n(-c4ccccc4)c3=O)CC2)c(=O)n(-c2ccccc2)n1C | TGI | > 100 µM

* * *

system: IGROV1 ovarian; experiment: NCI tumour cell line growth inhibition, 48 h

Molecule | TGI
COC(=O)C1=C(C(=O)OC)C2OC1C1C2C2(C)C(C)=C(C)C1(C)S2=O (stereo unspecified) | 39.3 µM
CSC1=Nc2ccccc2N(C)c2c1c(-c1ccccc1)nn2C | > 100 µM
O=C(O)c1ccc(NC(c2ccccc2)c2ccc3cccnc3c2O)cc1 (stereo unspecified) | > 95.8 µM
COc1ccc(-c2cc(-c3cc(Cl)ccc3Cl)nc3[nH]c(-c4cc(F)c(Cl)cc4Cl)cc(=O)c23)cc1 | > 100 µM
CCOC(=O)C1(CC)CCCCC(=O)N1 (stereo unspecified) | > 100 µM
O=c1[nH]c2nc3ccccc3c(=O)n2/c1=C/c1ccc(O)cc1 | > 100 µM
CSC1=NC=CCN1C | > 100 µM
CCOc1ccc(NC(=O)CC2Sc3ccccc3NC2=O)cc1 (stereo unspecified) | > 100 µM
CCN(CC)CCn1c2cc3c(cc2c(=O)c2cccnc21)OCCO3 | > 10 µM
Cc1ccc(-c2cc(N)n(-c3nc4c([nH]3)c(=O)n(C)c(=O)n4C)n2)cc1 | 18.3 µM
Cc1c(Cl)cccc1NC(=O)C(=O)C1C(=O)CC(C)(C)CC1=O | > 100 µM
